Every entry's value here was drawn from PubChem BioAssay AID1259407.

# Test system: CCRIS mutagenicity, Ames/micronucleus/aberration tests
# Assay overview: CCRIS mutagenicity studies
# Condition description: Test System: AMES SALMONELLA TYPHIMURIUM; Strain/Indicator: TA100; Metabolic Activation: NONE; Method: PREINCUBATION
Calls of active or inactive are those of the source. No rule for the calls is given here.
Respond with a class label; see active, inactive

Which outcome was entered for the compound "CCC[CH2][Sn]([CH2]CCC)([O]C(C)=O)[O]C(C)=O" in this test? inactive

Same for "CN(C)c1ccc(N=NS(=O)(=O)O)cc1" active

Same for "O=c1oc2ccc([N+](=O)[O-])cc2c2ccccc12" active

Same for "CCCCC/C=C\C/C=C\CCCCCCCC(=O)O" inactive

Same for "O=C=Nc1cccc2c(N=C=O)cccc12" inactive

Same for "Cc1cc2ncccc2c2nc(N)n(C)c12" inactive

Same for "O=c1[nH]c(=O)n([C@H]2C[C@H](O)[C@@H](CO)O2)cc1I" inactive

Same for "CCCNC(=O)NS(=O)(=O)c1ccc(Cl)cc1" inactive

Same for "O=C(CCCN1CCC(O)(c2ccc(Cl)cc2)CC1)c1ccc(F)cc1" inactive

Same for "Nc1cccc(O)c1" inactive

Same for "O=C/C=C/c1ccco1" inactive

Same for Clc1ccc(COC(Cn2ccnc2)c2ccc(Cl)cc2Cl)cc1 (centres undefined) inactive

Same for "O=Cc1ccc(Cl)c(Cl)c1" inactive

Same for "[O]=[Mo](=[O])=[O]" inactive

Same for "COc1ccc(C)cc1N" inactive

Same for "COc1cc2c(c3oc(=O)c4c(c13)CCC4=O)[C@H]1[C@@H](O2)O[C@@H]2O[C@@H]21" active

Same for "Cc1ccc(S(=O)(=O)NC2CCCCC2)cc1" inactive

Same for Cc1ccc(CC2CO2)cc1 (centres undefined) active

Same for "Brc1ccccc1-c1ccccc1" inactive

Same for "CCOC(=O)c1ccccc1N" inactive

Same for C/C=C1\CC2C=CC1C2 (centres undefined) inactive

Same for "COc1ccc(N)c(OC)c1" inactive

Same for "Clc1c(Cl)c(Cl)c2ccccc2c1Cl" inactive

Same for "C=C(C)C(=O)OCCC" inactive

Same for "O=C1c2ccccc2C(=O)C1(O)O" inactive

Same for "CC/C=C1\OC(=O)c2ccccc21" inactive

Same for "Nc1nc(-c2ccc([N+](=O)[O-])cc2)nc2c1ncn2[C@H]1C[C@H](O)[C@@H](CO)O1" active

Same for OCC1CO1 (centres undefined) active

Same for "[Ga]#[As]" inactive
